pIC50: −log10 of the molar value.
Literature survey of pIC50 (system: HPK1 (Homo sapiens (Human), UniProt Q92918)).
Sequence (Q92918 whole entry): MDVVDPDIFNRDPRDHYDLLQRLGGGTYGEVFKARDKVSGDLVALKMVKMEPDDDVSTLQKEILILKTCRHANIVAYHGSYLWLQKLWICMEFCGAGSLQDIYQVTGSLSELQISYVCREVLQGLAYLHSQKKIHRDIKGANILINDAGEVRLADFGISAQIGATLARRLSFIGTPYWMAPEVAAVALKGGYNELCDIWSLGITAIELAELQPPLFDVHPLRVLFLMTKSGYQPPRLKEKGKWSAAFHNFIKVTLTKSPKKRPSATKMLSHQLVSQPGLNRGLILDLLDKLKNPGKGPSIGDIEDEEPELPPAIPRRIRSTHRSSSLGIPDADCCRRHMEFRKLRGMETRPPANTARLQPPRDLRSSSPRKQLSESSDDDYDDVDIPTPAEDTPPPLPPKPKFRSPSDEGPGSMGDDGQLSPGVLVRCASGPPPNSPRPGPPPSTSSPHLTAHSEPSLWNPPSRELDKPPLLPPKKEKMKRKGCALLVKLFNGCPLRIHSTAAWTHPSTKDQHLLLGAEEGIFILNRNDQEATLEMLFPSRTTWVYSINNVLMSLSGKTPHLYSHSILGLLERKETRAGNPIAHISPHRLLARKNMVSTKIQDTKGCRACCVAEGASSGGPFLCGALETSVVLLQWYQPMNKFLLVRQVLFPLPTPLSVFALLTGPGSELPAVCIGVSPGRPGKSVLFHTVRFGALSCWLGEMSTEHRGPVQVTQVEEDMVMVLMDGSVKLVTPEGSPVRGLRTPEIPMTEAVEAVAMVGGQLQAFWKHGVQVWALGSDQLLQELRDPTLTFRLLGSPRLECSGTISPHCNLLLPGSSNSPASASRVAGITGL
parameter: pIC50

compound.string: O=C1NCc2c(-c3cccc4ccnn34)ncc(Nc3ccc(N4CCC(O)CC4)cn3)c21
study.target: HPK1 (Homo sapiens (Human), UniProt Q92918)
parameter: pIC50
readout.value: < 6.00
//
compound.string: CS(=O)(=O)Cc1ccc(Nc2cc(-c3c(F)cccc3F)nc3cc[nH]c(=O)c23)nc1
study.target: HPK1 (Homo sapiens (Human), UniProt Q92918)
parameter: pIC50
readout.value: 6.00 to 7.00
//
compound.string: Cn1ccc2c(-c3ncc(Nc4cccc(N5CCC[C@@H](N)C5)n4)c4c3CNC4=O)ccnc21
study.target: HPK1 (Homo sapiens (Human), UniProt Q92918)
parameter: pIC50
readout.value: > 7.00
//
compound.string: CC(=O)N1CCC(c2cc(Nc3ccc(N4CCC(O)CC4)cn3)c3c(=O)[nH]ccc3n2)CC1
study.target: HPK1 (Homo sapiens (Human), UniProt Q92918)
parameter: pIC50
readout.value: 6.00 to 7.00
//
compound.string: C/C(Nc1cn[nH]c1)=C1/C(=O)Nc2cnc(-c3cnccc3C)cc21
study.target: HPK1 (Homo sapiens (Human), UniProt Q92918)
parameter: pIC50
readout.value: > 7.30
//
compound.string: NCc1nc(Nc2ccc(-c3cnc4cc(F)ccn34)c3c2C(=O)NC3)ccc1[C@@H]1CCOC1
study.target: HPK1 (Homo sapiens (Human), UniProt Q92918)
parameter: pIC50
readout.value: > 7.00
//
compound.string: COc1cc(-c2cc(Nc3ccc(N4C[C@H]5COC[C@H]5C4)cn3)c3c(=O)[nH]ccc3n2)c(F)cc1C(=O)N1CCCCC1
study.target: HPK1 (Homo sapiens (Human), UniProt Q92918)
parameter: pIC50
readout.value: 6.00 to 7.00
//
compound.string: C/C(Nc1cc2n(n1)CCN(C)C2=O)=C1/C(=O)Nc2cnc(-c3cnccc3C)cc21
study.target: HPK1 (Homo sapiens (Human), UniProt Q92918)
parameter: pIC50
readout.value: > 7.30

###

// note: IC50 values for UniProt:Q92918 were reported in different studies

molecule: COc1cc2c(cc1Nc1ncc(C(N)=O)c(NCc3c(F)ccc(F)c3F)n1)CN(C)CC2
study.target: UniProt:Q92918
IC50: 0.51 nM

molecule: Cc1nc2cc(-c3cc(Nc4ccc(N5CCNCC5)cn4)c4c(=O)[nH]ccc4n3)c(F)cc2o1
study.target: UniProt:Q92918
IC50: 100 to 1000 nM

molecule: O=C1NCc2c(-c3cnc4cc(F)ccn34)ccc(Nc3ccc([C@H]4CCOC4)c(CN4CC[C@@H](O)C4)n3)c21
study.target: UniProt:Q92918
IC50: < 100 nM

molecule: CCn1ncc(Nc2ncc3c(N)c(F)c(-c4cnc5c(c4C)NCCO5)cc3n2)c1F
study.target: UniProt:Q92918
IC50: 0.57 nM

molecule: C/C(Nc1ccn(C)n1)=C1/C(=O)Nc2cnc(-c3cnccc3C)cc21
study.target: UniProt:Q92918
IC50: < 50 nM

molecule: CN(C(=O)C1(C)CC1)c1ccc(-c2cc(Nc3ccc(N4CCC(O)CC4)cn3)c3c(=O)[nH]ccc3n2)c(F)c1
study.target: UniProt:Q92918
IC50: 100 to 1000 nM

molecule: CN1CCc2cc(F)c(Nc3ncc(C(N)=O)c(Nc4ccccc4CO)n3)cc2C1
study.target: UniProt:Q92918
IC50: 0.12 nM

molecule: Cc1cccc(F)c1-n1nc2c(-c3ccc(N4C[C@H]5C[C@@H]4CN5C)cc3)n[nH]c2cc1=O
study.target: UniProt:Q92918
IC50: 50 to 500 nM

molecule: O=C1NCc2c(-c3cnc4cc(F)ccn34)ccc(Nc3ccc(N4CCC(O)CC4)cn3)c21
study.target: UniProt:Q92918
IC50: < 100 nM

molecule: CN(C)Cc1nc(Nc2ccc(-c3cnc4cc(F)ccn34)c3c2C(=O)NC3)ccc1OC1CCOCC1
study.target: UniProt:Q92918
IC50: < 100 nM

molecule: COc1cc2c(cc1Nc1ncc(C(N)=O)c(Nc3ccccc3C(F)(F)F)n1)CN(C)C(C)C2 (racemic)
study.target: UniProt:Q92918
IC50: 0.28 nM

molecule: CNCc1nc(Nc2ccc(-c3cnc4cc(F)ccn34)c3c2C(=O)NC3)ccc1C1CCOC1 (stereo in doubt)
study.target: UniProt:Q92918
IC50: < 100 nM

molecule: O=C(c1ccc(-c2cc(Nc3ccc(N4CCC(O)CC4)cn3)c3c(=O)[nH]ccc3n2)c(F)c1)N1CC2CCC1CC2
study.target: UniProt:Q92918
IC50: 100 to 1000 nM

molecule: Cc1ccc(NC(=O)c2cc(C(F)(F)F)ccn2)cc1C1=Cc2cnc(Nc3cccc(F)c3)nc2N2CCN=C12
study.target: UniProt:Q92918
IC50: < 100 nM

molecule: CCN1CCC(c2ccc(Nc3ccc(-c4cnc5cc(F)ccn45)c4c3C(=O)NC4)nc2CN(C)C)CC1=O (stereo not drawn)
study.target: UniProt:Q92918
IC50: ≤ 100 nM
